Catalogue of pEC50 readings, one per entry.
# target.or.system: NADH-dependent enoyl acyl carrier reductase (FabI) (Escherichia coli, UniProt P0AEK4)
# Construct: made in house; host or cells: recombinant bacteria (strain from Dr. Charles Rock, St. Jude Children's Research Hospital)
# Sequence (P0AEK4 whole entry): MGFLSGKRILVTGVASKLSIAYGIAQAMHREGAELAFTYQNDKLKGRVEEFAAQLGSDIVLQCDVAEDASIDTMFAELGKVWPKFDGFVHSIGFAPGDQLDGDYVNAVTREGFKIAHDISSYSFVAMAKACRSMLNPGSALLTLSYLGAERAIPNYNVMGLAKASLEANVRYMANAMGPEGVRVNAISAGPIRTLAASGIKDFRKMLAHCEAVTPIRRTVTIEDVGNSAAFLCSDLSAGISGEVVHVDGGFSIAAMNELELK
# test.summary: FabI enzyme inhibition assay (NADH consumption, absorbance at 340 nm)
# Assay type: biochemical, bacteria
# cond: purified HIS-tagged FabI enzyme, NADH and substrate (e.g. Malonyl CoA or Crotonyl CoA)
pEC50: −log10 of the molar value.
measure.name: pEC50

[[record]]
molecule = "[2H]C([2H])([2H])C([2H])([2H])n1c2c(c3ccccc31)CCN(C(=O)c1ccc(Cl)cc1)C2 [Compound 1E]"
target_or_system = "NADH-dependent enoyl acyl carrier reductase (FabI) (Escherichia coli, UniProt P0AEK4)"
measured_result = 5.11

[[record]]
molecule = "CC#CCn1c2c(c3ccccc31)CCN(C(=O)c1ccc(Cl)cc1)C2 [Compound 1D]"
target_or_system = "NADH-dependent enoyl acyl carrier reductase (FabI) (Escherichia coli, UniProt P0AEK4)"
measured_result = 5.22

[[record]]
molecule = "[2H]c1c([2H])c([2H])c(C(=O)N2CCc3c(n(Cc4ccc(F)cc4)c4ccccc34)C2)c([2H])c1[2H] [Compound 1B]"
target_or_system = "NADH-dependent enoyl acyl carrier reductase (FabI) (Escherichia coli, UniProt P0AEK4)"
measured_result = 5.82

[[record]]
molecule = "Nc1ccc(Cn2c3c(c4ccccc42)CCN(C(=O)c2ccc(O)cc2)C3)cc1 [Compound 1, reference compound]"
target_or_system = "NADH-dependent enoyl acyl carrier reductase (FabI) (Escherichia coli, UniProt P0AEK4)"
measured_result = 6.17

[[record]]
molecule = "N#Cc1ccc(Cn2c3c(c4ccccc42)CCN(C(=O)c2ccc(Cl)cc2)C3)cc1 [Compound 1A]"
target_or_system = "NADH-dependent enoyl acyl carrier reductase (FabI) (Escherichia coli, UniProt P0AEK4)"
measured_result = 5.60

[[record]]
molecule = "N#Cc1ccc(Cn2c3c(c4ccccc42)CCN(C(=O)c2ccc(Br)cc2)C3)cc1 [Compound 1C]"
target_or_system = "NADH-dependent enoyl acyl carrier reductase (FabI) (Escherichia coli, UniProt P0AEK4)"
measured_result = 5.60


This collection of values is drawn from patent US20070134733A1.
